- measurement.target: nucleolin (NCL), cell surface of MCF-7;IGFIIR, cell surface of MCF-7 (UniProt P19338+P11717)
- Sequence (P19338 2-710, chain 1 of 2): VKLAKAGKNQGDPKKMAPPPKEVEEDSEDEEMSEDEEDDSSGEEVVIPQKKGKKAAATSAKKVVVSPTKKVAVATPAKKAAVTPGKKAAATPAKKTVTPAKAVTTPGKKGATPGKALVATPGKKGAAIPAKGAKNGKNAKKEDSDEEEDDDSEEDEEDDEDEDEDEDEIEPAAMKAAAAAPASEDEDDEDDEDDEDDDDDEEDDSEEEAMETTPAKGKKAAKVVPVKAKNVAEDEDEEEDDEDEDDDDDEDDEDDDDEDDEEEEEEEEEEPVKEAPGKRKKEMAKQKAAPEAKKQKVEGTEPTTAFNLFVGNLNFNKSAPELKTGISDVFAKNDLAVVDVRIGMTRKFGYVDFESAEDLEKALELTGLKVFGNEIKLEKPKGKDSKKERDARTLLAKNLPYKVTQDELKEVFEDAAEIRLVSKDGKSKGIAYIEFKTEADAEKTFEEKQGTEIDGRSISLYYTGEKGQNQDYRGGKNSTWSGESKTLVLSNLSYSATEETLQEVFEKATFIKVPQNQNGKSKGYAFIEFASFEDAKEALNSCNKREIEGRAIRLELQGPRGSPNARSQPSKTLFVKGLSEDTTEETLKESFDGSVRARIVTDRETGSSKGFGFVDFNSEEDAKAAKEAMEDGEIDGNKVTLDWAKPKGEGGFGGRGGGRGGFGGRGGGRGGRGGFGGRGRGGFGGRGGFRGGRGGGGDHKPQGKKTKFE
- Sequence (P11717 41-2491, chain 2 of 2): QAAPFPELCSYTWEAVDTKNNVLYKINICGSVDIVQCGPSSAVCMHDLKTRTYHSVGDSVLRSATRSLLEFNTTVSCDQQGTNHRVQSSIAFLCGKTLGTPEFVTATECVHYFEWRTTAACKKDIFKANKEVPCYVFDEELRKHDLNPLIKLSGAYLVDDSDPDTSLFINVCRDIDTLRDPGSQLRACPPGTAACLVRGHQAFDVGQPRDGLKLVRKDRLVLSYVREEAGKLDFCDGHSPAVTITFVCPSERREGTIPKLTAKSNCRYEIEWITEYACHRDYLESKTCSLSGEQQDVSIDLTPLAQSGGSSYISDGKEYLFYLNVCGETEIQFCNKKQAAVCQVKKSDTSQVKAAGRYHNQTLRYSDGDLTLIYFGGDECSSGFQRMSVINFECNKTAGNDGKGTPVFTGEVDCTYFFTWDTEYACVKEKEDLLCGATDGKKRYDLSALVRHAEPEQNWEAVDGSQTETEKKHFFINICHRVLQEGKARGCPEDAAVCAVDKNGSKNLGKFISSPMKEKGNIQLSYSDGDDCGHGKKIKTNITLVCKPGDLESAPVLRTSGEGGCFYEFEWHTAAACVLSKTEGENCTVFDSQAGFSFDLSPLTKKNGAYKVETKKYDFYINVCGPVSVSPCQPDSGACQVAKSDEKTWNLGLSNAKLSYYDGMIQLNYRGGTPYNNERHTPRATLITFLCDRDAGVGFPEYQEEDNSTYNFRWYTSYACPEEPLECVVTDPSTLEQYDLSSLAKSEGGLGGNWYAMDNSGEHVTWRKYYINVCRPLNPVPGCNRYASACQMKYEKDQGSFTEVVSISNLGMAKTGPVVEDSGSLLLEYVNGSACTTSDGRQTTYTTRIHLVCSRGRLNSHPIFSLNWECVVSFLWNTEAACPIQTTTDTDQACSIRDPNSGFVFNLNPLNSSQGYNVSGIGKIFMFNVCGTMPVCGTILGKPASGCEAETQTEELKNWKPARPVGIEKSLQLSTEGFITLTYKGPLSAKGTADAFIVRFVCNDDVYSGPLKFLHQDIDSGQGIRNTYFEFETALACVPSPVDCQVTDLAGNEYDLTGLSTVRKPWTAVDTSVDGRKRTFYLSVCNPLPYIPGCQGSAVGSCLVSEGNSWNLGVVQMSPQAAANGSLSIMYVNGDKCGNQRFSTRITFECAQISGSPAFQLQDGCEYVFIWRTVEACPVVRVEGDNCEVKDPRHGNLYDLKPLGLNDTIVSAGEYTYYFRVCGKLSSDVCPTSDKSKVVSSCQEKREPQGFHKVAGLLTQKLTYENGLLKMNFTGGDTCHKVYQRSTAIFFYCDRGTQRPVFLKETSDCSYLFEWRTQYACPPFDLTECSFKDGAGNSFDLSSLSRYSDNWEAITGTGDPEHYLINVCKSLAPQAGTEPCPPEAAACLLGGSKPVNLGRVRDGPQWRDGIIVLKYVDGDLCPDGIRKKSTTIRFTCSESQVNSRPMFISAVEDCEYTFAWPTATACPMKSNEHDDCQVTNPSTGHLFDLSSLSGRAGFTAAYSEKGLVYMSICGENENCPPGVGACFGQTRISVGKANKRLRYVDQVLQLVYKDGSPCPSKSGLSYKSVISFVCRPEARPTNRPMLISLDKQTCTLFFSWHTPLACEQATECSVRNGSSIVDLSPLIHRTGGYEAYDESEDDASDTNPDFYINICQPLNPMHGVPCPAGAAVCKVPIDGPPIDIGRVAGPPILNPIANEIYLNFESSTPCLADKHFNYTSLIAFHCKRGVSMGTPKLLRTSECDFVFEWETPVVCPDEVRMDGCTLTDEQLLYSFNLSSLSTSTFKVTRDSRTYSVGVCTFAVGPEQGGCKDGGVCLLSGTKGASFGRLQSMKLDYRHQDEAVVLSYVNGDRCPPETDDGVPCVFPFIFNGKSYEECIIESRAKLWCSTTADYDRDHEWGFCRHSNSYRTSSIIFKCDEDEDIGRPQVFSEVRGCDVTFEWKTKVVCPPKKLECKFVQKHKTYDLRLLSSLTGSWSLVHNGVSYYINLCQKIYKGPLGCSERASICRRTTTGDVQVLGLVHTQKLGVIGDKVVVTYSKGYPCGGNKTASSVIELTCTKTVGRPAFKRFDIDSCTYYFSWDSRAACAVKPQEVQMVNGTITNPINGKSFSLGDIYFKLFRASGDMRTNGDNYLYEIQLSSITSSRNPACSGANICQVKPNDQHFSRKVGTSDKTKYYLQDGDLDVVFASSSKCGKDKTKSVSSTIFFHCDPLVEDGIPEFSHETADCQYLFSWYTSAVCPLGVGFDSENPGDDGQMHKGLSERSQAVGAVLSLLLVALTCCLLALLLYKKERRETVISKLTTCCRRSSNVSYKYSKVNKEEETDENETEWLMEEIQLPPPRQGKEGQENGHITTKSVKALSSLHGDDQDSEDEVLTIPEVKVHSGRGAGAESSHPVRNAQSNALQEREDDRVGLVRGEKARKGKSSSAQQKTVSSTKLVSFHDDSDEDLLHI
- experimental.protocol: flow cytometry
- condition.info: intact MCF-7 cells (apparent cellular Kd); Dulbecco's PBS with CaCl2 and MgCl2, 4.5 g/L glucose, 5 mM MgCl2, 0.1 mg/mL yeast tRNA, 1 mg/mL BSA; on ice 30 min; pH not stated
readout: Kd (nM)

seq | recorded.value
TTTTTTTTTTTTTTTGGGCGCGTAGATGACGAGCAGTCCTAACATCGTTTAGGAC / AAAAAAAAAAAAAAAGGTGGTGGTGGTTGTGGTGGTGGTGG [Mo-AS (monovalent NCL/IGFIIR chimera)] | 518

Origin of values: paper PMC12197088
